// provenance: patent US20250340516A1

Molecular target: POLRMT (Homo sapiens (Human), UniProt O00411)
Sequence (O00411 42-1230): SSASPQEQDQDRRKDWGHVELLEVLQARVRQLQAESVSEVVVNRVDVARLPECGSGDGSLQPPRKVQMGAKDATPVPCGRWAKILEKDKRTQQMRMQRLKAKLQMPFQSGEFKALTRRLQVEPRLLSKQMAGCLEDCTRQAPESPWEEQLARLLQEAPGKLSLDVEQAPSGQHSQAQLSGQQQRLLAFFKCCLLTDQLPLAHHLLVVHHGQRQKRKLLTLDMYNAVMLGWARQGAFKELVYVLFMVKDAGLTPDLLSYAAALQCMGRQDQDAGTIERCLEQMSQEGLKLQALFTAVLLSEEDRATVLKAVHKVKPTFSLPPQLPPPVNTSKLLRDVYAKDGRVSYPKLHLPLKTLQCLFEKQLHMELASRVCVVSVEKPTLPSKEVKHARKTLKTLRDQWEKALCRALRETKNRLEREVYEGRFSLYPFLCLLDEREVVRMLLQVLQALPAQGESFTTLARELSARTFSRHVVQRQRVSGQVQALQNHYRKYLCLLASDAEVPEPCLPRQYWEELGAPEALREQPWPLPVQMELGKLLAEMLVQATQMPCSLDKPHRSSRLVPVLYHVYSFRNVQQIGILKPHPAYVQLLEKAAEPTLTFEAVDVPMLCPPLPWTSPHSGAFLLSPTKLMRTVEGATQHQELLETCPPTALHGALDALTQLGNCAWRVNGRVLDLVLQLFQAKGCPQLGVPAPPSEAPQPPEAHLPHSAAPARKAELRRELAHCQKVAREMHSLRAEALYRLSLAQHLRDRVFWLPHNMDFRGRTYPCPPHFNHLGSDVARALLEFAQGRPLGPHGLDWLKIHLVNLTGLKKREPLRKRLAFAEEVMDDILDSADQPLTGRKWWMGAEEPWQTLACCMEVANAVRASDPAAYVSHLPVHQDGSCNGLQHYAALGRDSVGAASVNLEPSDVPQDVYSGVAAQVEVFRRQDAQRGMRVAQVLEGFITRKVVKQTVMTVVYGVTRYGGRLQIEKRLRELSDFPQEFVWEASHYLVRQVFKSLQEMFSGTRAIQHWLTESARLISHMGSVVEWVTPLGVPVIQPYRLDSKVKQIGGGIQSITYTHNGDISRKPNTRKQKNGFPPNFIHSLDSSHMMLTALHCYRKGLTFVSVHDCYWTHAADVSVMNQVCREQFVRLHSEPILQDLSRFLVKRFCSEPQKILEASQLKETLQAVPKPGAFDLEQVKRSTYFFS
Assay: homogeneous TR-FRET assay of POLRMT inhibition (mitochondrial transcription, 407 bp RNA product)
Conditions: 7.5 nM POLRMT, 15 nM TFB2M, 30 nM TFAM, 0.5 nM DNA template, 500 μM NTPs, 37° C., 60 minutes, * = aggregation of data sets, read-out: IC50 values for isoquinolinone compounds
endpoint-name: IC50 (nM)

As a guide, the following entries are already answered.
Cc1ccccc1-c1c[nH]c(=O)c2cc(O[C@H](C)C(=O)N3CCN(C(N)=O)CC3)ccc12 [Example 16] : 100
C[C@@H](Oc1ccc2c(-c3ccc(F)cc3Cl)c[nH]c(=O)c2c1)C(=O)N1CCCC(C2(C(=O)O)CC2)C1 (single isomer, unassigned) [Example 36] : 80
Cc1ccccc1-c1c[nH]c(=O)c2cc(O[C@H](C)C(=O)N[C@H](C)C(N)=O)ccc12 [Example 21] : 200
CC(=O)N1CCN(C[C@@H](C)Oc2ccc3c(-c4ccccc4C)c[nH]c(=O)c3c2)CC1 [Example 54] : 4000
COCc1ccccc1-c1c[nH]c(=O)c2cc(OCC#N)ccc12 [Example 47] : 18000

a. Cc1ccccc1-c1c[nH]c(=O)c2cc(O[C@H](C)C(=O)N3CCCC(C(C)(C)C(=O)O)C3)ccc12 (single isomer, unassigned) [Example 44]
b. Cc1ccccc1-c1c[nH]c(=O)c2cc(O[C@H](C)C(=O)N3CC[C@H](N(C)C)C3)ccc12 [Example 65]
Challenge: Pick one: a or b . Which one has the lower reported IC50? Kindly give the label for the entry you pick.
Response given: a
(a: 60 nM, b: 100 nM)

###

Molecular target: UniProt O00411
Assay: homogeneous TR-FRET assay of POLRMT inhibition (mitochondrial transcription, 407 bp RNA product)
Conditions: 7.5 nM POLRMT, 15 nM TFB2M, 30 nM TFAM, 0.5 nM DNA template, 500 μM NTPs, 37° C., 60 minutes, * = aggregation of data sets, read-out: IC50 values for isoquinolinone compounds
endpoint-name: IC50 (nM)

Cc1ccccc1-c1c[nH]c(=O)c2cc(O[C@H](C)C(=O)N3CC(C(=O)O)CC(F)(F)C3)ccc12 (single isomer, unassigned) [Example 2] : 50
Cc1ccccc1-c1c[nH]c(=O)c2cc(O[C@H](C)C(=O)N3CCC(N(C)C)CC3)ccc12 : 300
Cc1cccc(CO)c1-c1c[nH]c(=O)c2cc(OCC(F)(F)F)ccc12 : 80

I. Cc1ccccc1-c1c[nH]c(=O)c2cc(O[C@H](C)C(=O)N3CCCC(C4(C(=O)O)CC4)C3)ccc12 (some centres unmarked)
II. Cc1ccccc1-c1c[nH]c(=O)c2cc(O[C@H](C)C(=O)N3CCCCC(N(C)C)C3)ccc12 (single isomer, unassigned) [Example 75]
Challenge: I or II : whose IC50 is greater? Kindly give the label for the entry you pick.
Response given: II
(II: 3000 nM, I: 30 nM)

###

Target: POLRMT (Homo sapiens (Human), UniProt O00411)
Assay: homogeneous TR-FRET assay of POLRMT inhibition (mitochondrial transcription, 407 bp RNA product)
Details: 7.5 nM POLRMT, 15 nM TFB2M, 30 nM TFAM, 0.5 nM DNA template, 500 μM NTPs, 37° C., 60 minutes, * = aggregation of data sets, read-out: IC50 values for isoquinolinone compounds
pIC50: −log10 of the molar value.
endpoint-name: pIC50

As a guide, the following entries are already answered.
Cc1ccccc1-c1c[nH]c(=O)c2cc(O[C@H](C)C(=O)N3CCC[C@@H](N(C)C)C3)ccc12 [Example 33] : 6.52
Cc1ccccc1-c1c[nH]c(=O)c2cc(O[C@H](C)C(=O)N3CCCCC(N(C)C)C3)ccc12 (single isomer, unassigned) [Example 76] : 5.70
Cc1ccccc1-c1c[nH]c(=O)c2cc(O[C@H](C)C(=O)N3CC[C@@H](N(C)C)C3)ccc12 [Example 64] : 6.70
N#CCOc1ccc2c(-c3ccccc3CCO)c[nH]c(=O)c2c1 [Example 42] : 6.52
C[C@@H](Oc1ccc2c(-c3ccc(F)cc3Cl)c[nH]c(=O)c2c1)C(=O)N1CCCC(C(C)(C)C(=O)O)C1 (single isomer, unassigned) [Example 51] : 6.52

1. Cc1ccccc1-c1c[nH]c(=O)c2cc(O[C@H](C)C(=O)N3CC(C(=O)O)CC(F)(F)C3)ccc12 (single isomer, unassigned) [Example 1]
2. Cc1ccccc1-c1c[nH]c(=O)c2cc(N(C)[C@@H](C)C(=O)N3CCC[C@H](C(=O)O)C3)ccc12 (single isomer, unassigned) [Example 8]
Challenge: Pick one: 1 or 2 . Which one has the lower reported pIC50? Kindly give the label for the entry you pick.
Response given: 2

###

Target: POLRMT (Homo sapiens (Human))
Test: homogeneous TR-FRET assay of POLRMT inhibition (mitochondrial transcription, 407 bp RNA product)
Format: biochemical
Details: 7.5 nM POLRMT, 15 nM TFB2M, 30 nM TFAM, 0.5 nM DNA template, 500 μM NTPs, 37° C., 60 minutes, * = aggregation of data sets, read-out: IC50 values for isoquinolinone compounds
pIC50: −log10 of the molar value.
endpoint-name: pIC50

As a guide, the following entries are already answered.
Cc1ccccc1-c1c[nH]c(=O)c2cc(O[C@H](C)C(=O)N3CCCC(CC(=O)O)C3)ccc12 (single isomer, unassigned) [Example 13] : 7.15
CC(=O)N1CCN(C[C@H](C)Oc2ccc3c(-c4ccccc4C)c[nH]c(=O)c3c2)CC1 [Example 55] : 4.43
Cc1ccccc1-c1c[nH]c(=O)c2cc(O[C@H](C)C(=O)N3CCCC(C(C)(C)C(N)=O)C3)ccc12 (single isomer, unassigned) [Example 46] : 7.40
COCCN1C2CCC1CN(C(=O)[C@@H](C)Oc1ccc3c(-c4ccccc4C)c[nH]c(=O)c3c1)C2 [Example 27] : 7.00

a. Cc1ccccc1-c1c[nH]c(=O)c2cc(O[C@@H](C)C(=O)N(C)CC(=O)O)ccc12 [Example 26]
b. Cc1ccccc1-c1c[nH]c(=O)c2cc(O[C@H](C)C(=O)N3CCCC(C4(C(N)=O)CC4)C3)ccc12 (single isomer, unassigned) [Example 40]
c. Cc1ccccc1-c1c[nH]c(=O)c2cc(O[C@H](C)C(=O)N3CCCC(CC(=O)O)C3)ccc12 (single isomer, unassigned) [Example 12]
d. C[C@@H](Oc1ccc2c(-c3ccc(F)cc3Cl)c[nH]c(=O)c2c1)C(=O)N1CC(C(N)=O)CC(F)(F)C1 (single isomer, unassigned) [Example 9]
Challenge: Arrange items by their pIC50 values in increasing order. Use the labels to give the ranking in the order requested.
Response given: a, d, c, b

###

Target: POLRMT (Homo sapiens (Human))
Experiment: homogeneous TR-FRET assay of POLRMT inhibition (mitochondrial transcription, 407 bp RNA product)
Settings: 7.5 nM POLRMT, 15 nM TFB2M, 30 nM TFAM, 0.5 nM DNA template, 500 μM NTPs, 37° C., 60 minutes, * = aggregation of data sets, read-out: IC50 values for isoquinolinone compounds
pIC50: −log10 of the molar value.
endpoint-name: pIC50

COc1ccc2c(-c3ccccc3C(C)O)c[nH]c(=O)c2c1 (stereo not shown) : 4.21
CCCC1(C(=O)O)CCCN(C(=O)[C@@H](C)Oc2ccc3c(-c4ccccc4C)c[nH]c(=O)c3c2)C1 (single isomer, unassigned) [Example 67] : 7.40
Cc1ccccc1-c1c[nH]c(=O)c2cc(O[C@H](C)C(=O)NCC(N)=O)ccc12 : 7.00

A. Cc1ccccc1-c1c[nH]c(=O)c2cc(O[C@H](C)C(=O)NC3(C(N)=O)CC3)ccc12
B. C[C@@H](C(=O)N1CCC[C@H](C(=O)O)C1)N(C)c1ccc2c(-c3ccc(F)cc3Cl)c[nH]c(=O)c2c1 (single isomer, unassigned) [Example 5]
Challenge: Pick one: A or B . Which one has the lower reported pIC50? Kindly give the label for the entry you pick.
Response given: B
(B: 5.10, A: 7.00)
